Experiment: in vitro
Type: cell-based
Details: rat, PC12 cells, MTT, read-out: PC12 viability percent (cytotoxicity)
Procedure: The cytotoxic effect of the selected compounds (8l and 8n) on the PC12 cell line was evaluated by using the MTT-based colorimetric assay. First, the PC12 cell line was cultivated in DMEM culture medium, supplemented with fetal bovine serum (10%). […]. […] The viability percent was then calculated according to the control well, where no compound was added to the related well. […]
Consider the following compounds; for each one, report its viability at 24 h, 50 µM.
// units = %; emit number, no label

Looking up `COc1cccc2cc(-c3ccc(OCc4cn(Cc5ccccc5)nn4)cc3)c(=O)oc12` , I found its viability at 24 h, 50 µM recorded as 95.2

Quick note, viability at 24 h, 50 µM for `COc1cccc(Cn2cc(COc3ccc(-c4cc5ccccc5oc4=O)cc3)nn2)c1` landed at 96.5

Data provenance is paper PMC8812461.
